- target: T1, Rok-C114-185 T156A (Bacillus subtilis subsp. subtilis str. …, UniProt O34857 114-185, T156A)
- T1 sequence: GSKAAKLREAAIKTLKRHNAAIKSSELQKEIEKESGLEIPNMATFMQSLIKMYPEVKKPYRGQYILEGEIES
- assay procedure: ITC; ITC: sodium phosphate buffer, 200 mM NaCl, pH 6, 277 K, 50 uM protein in cell titrated with 750 uM Seq1 DNA; PBM: buffer not stated
- test parameters: protein: recombinant; tags: C-terminal His6; blunt, self-complementary 18 bp
readout: pKd
Scale: pKd equals -log10([C]), with [C] in mol/L.

Data request, read-out pKd, for Seq1 (dsDNA) DNA 1: CTAATAACTAGTTATTAG DNA 2: CTAATAACTAGTTATTAG
4.37
